Test system: A. baumannii ATCC 19606
test: MIC without and with sub-inhibitory polymyxin B (Example 4)
Assay type: cell-based, Acinetobacter baumannii
conditionSummary: Acinetobacter baumannii, ATCC19606, A. baumannii ATCC 19606; without polymyxin B; 2nd experiment; visual reading; read-out: MIC without PB
Provide the recorded MIC for the entries that follow.
Write the quantity with the unit trailing the number.

The cases that follow already have their MIC on record.
compound	MIC
COc1c(N2C[C@@H]3CCCN[C@@H]3C2)c(F)cc2c(=O)c(C(=O)O)cn(C3CC3)c12 [Moxifloxacin, reference compound]	1 µg/mL
Cc1c(-c2cc(F)c(N)cc2F)ccn2c(=O)c(C(=O)O)cc(C3CC3)c12	0.125 µg/mL
C[C@@H](O)[C@H]1C(=O)N2C(C(=O)O)=C(SCCN=CN)C[C@H]12 [Imipenem, reference compound]	1 µg/mL
Cc1c(-c2ccc(N)c(F)c2)ccn2c(=O)c(C(=O)O)cc(C3CC3)c12	0.25 µg/mL
C[C@H]1COc2c(N3CCN(C)CC3)c(F)cc3c(=O)c(C(=O)O)cn1c23 [Levofloxacin, reference compound]	1 µg/mL

Proceeding to the next compound to report its MIC.
Query: MIC; subject: "Cc1c(-c2ccc(N)cc2)c(F)cn2c(=O)c(C(=O)O)cc(C3CC3)c12" 0.25 µg/mL

====

System: A. baumannii A472
test: MIC without and with sub-inhibitory polymyxin B (Example 4)
Type: cell-based, Acinetobacter baumannii
conditionSummary: Acinetobacter baumannii, A472, A. baumannii A472; without polymyxin B; 1st experiment; read-out: MIC without PB
I'd be grateful if you could share measured MIC for these entries.
Numbers only, in µg/mL.

Record excerpt, results attached:
molecule	MIC (µg/mL)
Cc1c(-c2ccc(N)c(F)c2)c(F)cn2c(=O)c(C(=O)O)cc(C3CC3)c12	4
C[C@@H](O)[C@H]1C(=O)N2C(C(=O)O)=C(S[C@@H]3CN[C@H](C(=O)N(C)C)C3)[C@H](C)[C@H]12 [Meropenem, reference compound]	8

We now examine a further molecule.
So what's the measured MIC for this one? C[C@@H](O)[C@H]1C(=O)N2C(C(=O)O)=C(SCCN=CN)C[C@H]12 [Imipenem, reference compound] 16

====

System: A. baumannii A473
test: MIC without and with sub-inhibitory polymyxin B (Example 4)
Type: cell-based, Acinetobacter baumannii
conditionSummary: Acinetobacter baumannii, A473, A. baumannii A473; without polymyxin B; 1st experiment; read-out: MIC without PB
Please provide measured MIC for the entries that follow.
Write the numeric value and append its unit.

See these solved cases before continuing.
compound	MIC
Cc1c(-c2ccc(CN)cc2)ccn2c(=O)c(C(=O)O)cc(C3CC3)c12	8 µg/mL
Cc1c(-c2ccc(N)c(F)c2)ccn2c(=O)c(C(=O)O)cc(C3CC3)c12	4 µg/mL
Cc1c(-c2ccc(N)c(F)c2)c(F)cn2c(=O)c(C(=O)O)cc(C3CC3)c12	4 µg/mL

Dear reader, for each entry below, please note its MIC.
1. Cc1c(-c2ccc(N)cc2)c(F)cn2c(=O)c(C(=O)O)cc(C3CC3)c12
2. Cc1c(-c2cc(F)c(N)cc2F)ccn2c(=O)c(C(=O)O)cc(C3CC3)c12

1. 4 µg/mL
2. 8 µg/mL

Provide MIC values for the following items, in order.
1. C[C@@H](O)[C@H]1C(=O)N2C(C(=O)O)=C(SCCN=CN)C[C@H]12 [Imipenem, reference compound]
2. COc1c(N2C[C@@H]3CCCN[C@@H]3C2)c(F)cc2c(=O)c(C(=O)O)cn(C3CC3)c12 [Moxifloxacin, reference compound]
3. Cc1c(-c2cc(Cl)c(N)c(Cl)c2)ccn2c(=O)c(C(=O)O)cc(C3CC3)c12

["32 µg/mL", "16 µg/mL", "4 µg/mL"]

Values were extracted from patent US10155021B2.
